- TARGET_OF_ASSAY: HiBit-WIZ fusion protein (Homo sapiens, UniProt O95785+Q96SW2)
- Sequence (O95785 whole entry, the tested form may be a part): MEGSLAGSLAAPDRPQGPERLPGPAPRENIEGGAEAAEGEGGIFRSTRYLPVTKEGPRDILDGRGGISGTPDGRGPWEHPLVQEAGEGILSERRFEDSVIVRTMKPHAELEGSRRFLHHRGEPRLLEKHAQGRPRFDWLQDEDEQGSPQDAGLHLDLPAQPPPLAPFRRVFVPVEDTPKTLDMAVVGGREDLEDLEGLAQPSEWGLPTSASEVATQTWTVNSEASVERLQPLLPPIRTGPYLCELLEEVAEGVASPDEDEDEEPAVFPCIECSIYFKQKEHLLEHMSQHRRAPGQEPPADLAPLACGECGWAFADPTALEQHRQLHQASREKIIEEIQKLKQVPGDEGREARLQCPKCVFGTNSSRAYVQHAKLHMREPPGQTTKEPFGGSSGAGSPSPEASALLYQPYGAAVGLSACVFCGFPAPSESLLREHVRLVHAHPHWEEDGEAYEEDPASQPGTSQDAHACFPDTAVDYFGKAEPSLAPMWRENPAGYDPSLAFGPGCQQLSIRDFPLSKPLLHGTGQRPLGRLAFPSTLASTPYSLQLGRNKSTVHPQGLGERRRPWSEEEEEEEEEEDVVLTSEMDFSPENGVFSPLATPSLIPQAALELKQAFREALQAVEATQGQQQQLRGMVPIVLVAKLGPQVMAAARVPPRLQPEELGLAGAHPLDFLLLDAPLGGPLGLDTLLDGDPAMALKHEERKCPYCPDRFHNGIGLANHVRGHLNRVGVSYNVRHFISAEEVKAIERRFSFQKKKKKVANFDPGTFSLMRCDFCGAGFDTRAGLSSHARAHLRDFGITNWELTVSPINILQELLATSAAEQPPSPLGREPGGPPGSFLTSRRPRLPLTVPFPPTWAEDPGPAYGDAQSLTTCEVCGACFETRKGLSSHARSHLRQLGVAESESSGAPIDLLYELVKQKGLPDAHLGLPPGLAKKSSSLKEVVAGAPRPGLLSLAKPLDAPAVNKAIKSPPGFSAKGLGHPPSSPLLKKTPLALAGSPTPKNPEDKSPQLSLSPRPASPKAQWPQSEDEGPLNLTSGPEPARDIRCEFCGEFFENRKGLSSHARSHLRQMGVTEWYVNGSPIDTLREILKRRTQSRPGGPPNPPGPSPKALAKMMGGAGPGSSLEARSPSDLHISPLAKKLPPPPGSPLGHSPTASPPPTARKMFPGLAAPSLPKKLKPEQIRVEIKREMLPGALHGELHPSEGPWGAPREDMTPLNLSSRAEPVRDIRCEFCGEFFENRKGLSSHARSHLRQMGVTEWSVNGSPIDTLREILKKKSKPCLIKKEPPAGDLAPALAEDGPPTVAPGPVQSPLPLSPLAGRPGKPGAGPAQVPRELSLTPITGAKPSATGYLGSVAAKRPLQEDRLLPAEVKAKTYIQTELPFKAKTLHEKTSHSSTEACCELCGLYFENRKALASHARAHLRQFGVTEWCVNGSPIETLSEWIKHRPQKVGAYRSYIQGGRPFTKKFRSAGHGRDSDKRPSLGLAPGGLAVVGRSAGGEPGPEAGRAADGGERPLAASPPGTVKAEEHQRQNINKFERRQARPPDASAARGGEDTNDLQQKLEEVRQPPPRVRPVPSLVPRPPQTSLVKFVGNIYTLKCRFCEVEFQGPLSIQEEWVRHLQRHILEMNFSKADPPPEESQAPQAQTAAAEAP
- Sequence (Q96SW2 whole entry, the tested form may be a part): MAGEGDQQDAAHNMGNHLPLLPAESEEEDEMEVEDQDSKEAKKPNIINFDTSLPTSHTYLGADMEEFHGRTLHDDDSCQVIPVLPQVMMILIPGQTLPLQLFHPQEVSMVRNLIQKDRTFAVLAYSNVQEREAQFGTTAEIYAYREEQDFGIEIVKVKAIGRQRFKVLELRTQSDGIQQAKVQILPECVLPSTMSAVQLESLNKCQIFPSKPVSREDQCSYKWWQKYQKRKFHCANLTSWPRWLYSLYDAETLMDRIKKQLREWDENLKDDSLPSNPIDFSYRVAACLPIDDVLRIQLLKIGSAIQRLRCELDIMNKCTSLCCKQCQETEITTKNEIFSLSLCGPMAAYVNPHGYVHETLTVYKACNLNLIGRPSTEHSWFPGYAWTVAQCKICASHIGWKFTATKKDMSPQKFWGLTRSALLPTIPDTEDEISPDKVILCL
- Sequence (Q16531 whole entry partner, the tested form may be a part): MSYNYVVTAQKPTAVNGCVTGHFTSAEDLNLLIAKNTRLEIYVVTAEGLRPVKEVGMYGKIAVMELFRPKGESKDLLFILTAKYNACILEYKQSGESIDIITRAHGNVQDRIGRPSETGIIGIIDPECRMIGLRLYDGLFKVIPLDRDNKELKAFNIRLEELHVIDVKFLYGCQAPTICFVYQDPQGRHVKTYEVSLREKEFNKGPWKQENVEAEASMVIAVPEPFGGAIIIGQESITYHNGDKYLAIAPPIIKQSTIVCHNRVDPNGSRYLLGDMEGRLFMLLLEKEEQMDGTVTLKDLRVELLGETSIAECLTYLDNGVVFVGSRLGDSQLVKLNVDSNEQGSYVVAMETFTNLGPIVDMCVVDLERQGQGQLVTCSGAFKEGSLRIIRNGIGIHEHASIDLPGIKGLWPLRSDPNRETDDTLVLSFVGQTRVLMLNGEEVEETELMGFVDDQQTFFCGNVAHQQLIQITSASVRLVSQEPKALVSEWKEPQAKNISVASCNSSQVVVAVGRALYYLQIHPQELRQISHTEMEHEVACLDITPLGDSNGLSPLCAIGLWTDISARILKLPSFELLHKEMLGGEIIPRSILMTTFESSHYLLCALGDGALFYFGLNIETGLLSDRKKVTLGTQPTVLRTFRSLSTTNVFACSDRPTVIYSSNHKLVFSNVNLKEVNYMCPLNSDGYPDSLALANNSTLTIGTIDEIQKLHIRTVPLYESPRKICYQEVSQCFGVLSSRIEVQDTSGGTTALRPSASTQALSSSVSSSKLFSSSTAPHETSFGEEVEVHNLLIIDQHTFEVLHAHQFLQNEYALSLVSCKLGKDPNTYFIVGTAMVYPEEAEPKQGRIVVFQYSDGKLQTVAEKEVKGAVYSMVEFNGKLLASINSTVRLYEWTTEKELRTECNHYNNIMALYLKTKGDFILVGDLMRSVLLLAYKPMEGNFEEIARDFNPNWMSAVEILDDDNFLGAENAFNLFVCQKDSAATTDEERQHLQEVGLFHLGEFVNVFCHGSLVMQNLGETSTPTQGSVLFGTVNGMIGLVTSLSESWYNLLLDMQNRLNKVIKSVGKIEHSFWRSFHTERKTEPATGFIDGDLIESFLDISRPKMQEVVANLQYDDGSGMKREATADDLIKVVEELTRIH
- PROTOCOL_SUMMARY: Quantification of WIZ protein levels in HiBit tag fusion protein assay (WIZ HiBit assay in 293T cells)
- Type: cell-based
- STATED_CONDITIONS: HEK-293T, DMSO-normalized, curve-fitted percentage of WIZ-HiBit remaining at 25 uM; 293T cells; read-out: WIZ Amax
Please assign a class to every record based on measured remaining activity at up to 25 µM, with ranges b0 = under 30%, b1 = from 30% up to 80%, b2 = 80% and over

>  <COMPOUND>
N#Cc1cccc(Cn2cccc(CN3CCCC[C@H]3COc3ccc4c(c3)CN(C3CCC(=O)NC3=O)C4=O)c2=O)c1 (stereo partly shown) [Compound I-50aw]

>  <LABEL>
b1

$$$$
>  <COMPOUND>
N#Cc1ccc(CCC(=O)N2CCCC[C@H]2COc2ccc3c(c2)CN(C2CCC(=O)NC2=O)C3=O)cc1 (stereo partly shown) [Compound I-72gh]

>  <LABEL>
b2

$$$$
>  <COMPOUND>
CC(C)(C)OC(=O)N1CCN(c2ccc(CN3CCCC[C@@H]3COc3ccc4c(c3)CN(C3CCC(=O)NC3=O)C4=O)cn2)CC1 (stereo partly shown) [Compound I-189]

>  <LABEL>
b0

$$$$
>  <COMPOUND>
O=C1CCC(N2Cc3cc(OC[C@@H]4CCCCN4Cc4ccnc(O)c4)ccc3C2=O)C(=O)N1 (stereo partly shown) [Compound I-50cv]

>  <LABEL>
b1

$$$$
>  <COMPOUND>
C[C@H]1CC[C@H](CC(=O)N2CCCC[C@H]2COc2ccc3c(c2)CN(C2CCC(=O)NC2=O)C3=O)CC1 (stereo partly shown) [Compound I-72do]

>  <LABEL>
b1

$$$$
>  <COMPOUND>
CN(C)Cc1ncc(-c2ccc(Oc3cc(Cl)cnc3CN3CCCC[C@@H]3COc3ccc4c(c3)CN(C3CCC(=O)NC3=O)C4=O)cc2)n1C (stereo partly shown) [Compound I-50di]

>  <LABEL>
b0

$$$$
>  <COMPOUND>
O=C1CCC(N2Cc3cc(OC[C@H]4CCCCN4Cc4ccc(C5=CCOCC5)cc4)ccc3C2=O)C(=O)N1 (stereo partly shown) [Compound I-188]

>  <LABEL>
b0

$$$$
>  <COMPOUND>
O=C1CCC(N2Cc3cc(OC[C@H]4CCCCN4Cc4ccc(C5CCN(CC6CCOCC6)CC5)cc4)ccc3C2=O)C(=O)N1 (stereo partly shown) [Compound I-197]

>  <LABEL>
b1

$$$$
>  <COMPOUND>
CC(C)(C)c1cc(CC(=O)N2CCCC[C@H]2COc2ccc3c(c2)CN(C2CCC(=O)NC2=O)C3=O)on1 (stereo partly shown) [Compound I-72hj]

>  <LABEL>
b2

$$$$
>  <COMPOUND>
O=C1CCC(N2Cc3cc(OC[C@H]4CCCCN4Cc4cc(F)c(F)c(F)c4)ccc3C2=O)C(=O)N1 (stereo partly shown) [Compound I-144]

>  <LABEL>
b0

$$$$
>  <COMPOUND>
Cn1nc(CN2CCCC[C@H]2COc2ccc3c(c2)CN(C2CCC(=O)NC2=O)C3=O)cc1-c1ccccc1 (stereo partly shown) [Compound I-50bc]

>  <LABEL>
b0

$$$$
>  <COMPOUND>
O=C1CCC(N2Cc3cc(OC[C@H]4CCCCN4Cc4ncccc4O)ccc3C2=O)C(=O)N1 (stereo partly shown) [Compound I-50ej]

>  <LABEL>
b2

$$$$
>  <COMPOUND>
O=C1CCC(N2Cc3cc(OC[C@@H]4CCCCN4C(=O)c4cccnc4N4CCCC4)ccc3C2=O)C(=O)N1 (stereo partly shown) [Compound I-72gb]

>  <LABEL>
b1

$$$$
>  <COMPOUND>
O=C1CCC(N2Cc3cc(OC[C@H]4CCCCN4Cc4ccc(Cn5ccnc5)cc4)ccc3C2=O)C(=O)N1 (stereo partly shown) [Compound I-50ek]

>  <LABEL>
b0

$$$$
>  <COMPOUND>
O=C1CCC(N2Cc3cc(OC[C@@H]4CCCCN4C(=O)c4[nH]nc5c4CCCC5)ccc3C2=O)C(=O)N1 (stereo partly shown) [Compound I-72ix]

>  <LABEL>
b2

$$$$
>  <COMPOUND>
O=C1CCC(N2Cc3cc(OC[C@H]4CCCCN4Cc4cccc5c4NCC5)ccc3C2=O)C(=O)N1 (stereo partly shown) [Compound I-111]

>  <LABEL>
b0

$$$$
>  <COMPOUND>
O=C1CCC(N2Cc3cc(OC[C@H]4CCCCN4Cc4ccccc4OCCN4CCOCC4)ccc3C2=O)C(=O)N1 (stereo partly shown) [Compound I-50ed]

>  <LABEL>
b0

$$$$
>  <COMPOUND>
O=C1CCC(N2Cc3cc(OC[C@@H]4CCCCN4Cc4cncnc4)ccc3C2=O)C(=O)N1 (stereo partly shown) [Compound I-50cq]

>  <LABEL>
b2

$$$$
>  <COMPOUND>
CC(C)N1CCC(CN2CCCC[C@H]2COc2ccc3c(c2)CN(C2CCC(=O)NC2=O)C3=O)CC1 (stereo partly shown) [Compound I-50cb]

>  <LABEL>
b0

$$$$
>  <COMPOUND>
O=C1CCC(N2Cc3cc(OC[C@@H]4CCCCN4C(=O)c4ccc(N5CCOCC5)cc4)ccc3C2=O)C(=O)N1 (stereo partly shown) [Compound I-72an]

>  <LABEL>
b1

$$$$
>  <COMPOUND>
COc1ccccc1CN1CCCC[C@H]1COc1ccc2c(c1)CN(C1CCC(=O)NC1=O)C2=O (stereo partly shown) [Compound I-50d]

>  <LABEL>
b0

$$$$
>  <COMPOUND>
Cc1cc(-n2c(C)cc(C(=O)N3CCCC[C@H]3COc3ccc4c(c3)CN(C3CCC(=O)NC3=O)C4=O)c2C)no1 (stereo partly shown) [Compound I-72iu]

>  <LABEL>
b0

$$$$
>  <COMPOUND>
O=C1CCC(N2Cc3cc(OC[C@H]4CCCCN4Cc4ccc5ocnc5c4)ccc3C2=O)C(=O)N1 (stereo partly shown) [Compound I-201]

>  <LABEL>
b0

$$$$
>  <COMPOUND>
Cn1ccc(C(=O)N2CCCC[C@H]2COc2ccc3c(c2)CN(C2CCC(=O)NC2=O)C3=O)cc1=O (stereo partly shown) [Compound I-72ao]

>  <LABEL>
b2

$$$$
>  <COMPOUND>
O=C1CCC(N2Cc3cc(OC[C@@H]4CCCCN4C(=O)Cc4cscn4)ccc3C2=O)C(=O)N1 (stereo partly shown) [Compound I-72m]

>  <LABEL>
b2

$$$$
>  <COMPOUND>
Cc1onc(-c2ccccc2)c1CC(=O)N1CCCC[C@H]1COc1ccc2c(c1)CN(C1CCC(=O)NC1=O)C2=O (stereo partly shown) [Compound I-72gp]

>  <LABEL>
b2

$$$$
